- System: ring stage parasites (Pf)
- assay-protocol: Parasite lactate dehydrogenase (LDH) growth assay (Parasite Assay, PfLDH Assay)
- Format: cell-based, P. falciparum
- condition-details: Table 4; 72 hours growth, LDH readout; read-out: EC50 (Table 4)
pEC50: −log10 of the molar value.
Use 8 as the dividing line for pEC50, with the line itself on the 1 (yes) side and lower values as 0 (no).

Worked cases, answers included:
1. CCC1(CC)CC(=O)N(C(CC(C)OC)[C@H]2C[C@@H]2C(=O)N[C@H]2CC(C)(C)Oc3ccccc32)C(=N)N1 (single isomer, unassigned) [Example 142D] = 0 (no)
2. CCC1(CC)CC(=O)N(C(CC(C)OC)[C@H]2C[C@@H]2C(=O)N[C@@H]2CC(C)(C)Oc3ccccc32)C(=N)N1 (single isomer, unassigned) [Example 143A] = 1 (yes)
3. CCC1(CC)CC(=O)N([C@H](CCOC)[C@H]2C[C@@H]2C(=O)NC2CC(C)(C)Oc3cccc(Cl)c32)C(=N)N1 (some centres unmarked) [Example 149B] = 1 (yes)
4. CCC1(CC)CC(=O)N(C(CC(C)OC)[C@H]2C[C@@H]2C(=O)N[C@H]2CC(C)(C)Oc3ccccc32)C(=N)N1 (single isomer, unassigned) [Example 142C] = 0 (no)
5. CCC1(CC)CC(=O)N(C(CC(C)OC)[C@H]2C[C@@H]2C(=O)N[C@@H]2CC(C)(C)Oc3ccccc32)C(=N)N1 (single isomer, unassigned) [Example 143C] = 0 (no)
6. CCC1(CC)CC(=O)N([C@H](CCOC)[C@H]2C[C@@H]2C(=O)NC2CC(C)(C)Oc3c(Cl)cccc32)C(=N)N1 (some centres unmarked) [Example 148B] = 1 (yes)

Continue with the compound presented below.
Item CCC1(CC)CC(=O)N(C(CC(C)OC)[C@H]2C[C@@H]2C(=O)N[C@@H]2CC(C)(C)Oc3ccccc32)C(=N)N1 (single isomer, unassigned) [Example 143B] with pEC50 of 8 or above? 1 (yes)
